Let's go through some pIC50 measurements on UniProt O00141 together.
Sequence (O00141 whole entry): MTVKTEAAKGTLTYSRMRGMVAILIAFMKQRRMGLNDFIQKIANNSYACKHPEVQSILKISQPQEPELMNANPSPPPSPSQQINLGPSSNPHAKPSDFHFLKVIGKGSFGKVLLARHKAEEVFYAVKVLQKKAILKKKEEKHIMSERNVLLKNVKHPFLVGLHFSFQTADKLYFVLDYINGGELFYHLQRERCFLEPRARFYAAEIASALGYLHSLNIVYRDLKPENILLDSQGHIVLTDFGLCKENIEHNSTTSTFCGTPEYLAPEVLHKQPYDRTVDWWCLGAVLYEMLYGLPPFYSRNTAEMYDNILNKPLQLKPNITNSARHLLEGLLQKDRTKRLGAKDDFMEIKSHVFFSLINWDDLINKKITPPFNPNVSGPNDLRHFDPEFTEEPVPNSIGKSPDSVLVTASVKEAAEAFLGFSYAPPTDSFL
pIC50: −log10 of the molar value.

As a guide, the following entries are already answered.
Fc1ccc(Cl)cc1CNc1ncc2nc(-c3c(Cl)cccc3Cl)n(C[C@@H]3CCCNC3)c2n1 : < 5.00
Fc1ccc(CNc2ncc3nc(-c4c(Cl)cccc4Cl)n(CC4CCNC4)c3n2)cc1 (stereo not drawn) : < 5.00
Fc1ccccc1CNc1ncc2nc(-c3c(Cl)cccc3Cl)n(C[C@@H]3CCCNC3)c2n1 : < 6.00

Kindly consider the entry below.
Q) Give UniProt O00141 pIC50 for Clc1cccc(Cl)c1-c1nc2cnc(NCc3ccccc3)nc2n1CC1CCNC1 (stereo not drawn)
A) < 5.00

----------
Target: PKC delta (Homo sapiens, UniProt Q05655)
Sequence (Q05655 whole entry): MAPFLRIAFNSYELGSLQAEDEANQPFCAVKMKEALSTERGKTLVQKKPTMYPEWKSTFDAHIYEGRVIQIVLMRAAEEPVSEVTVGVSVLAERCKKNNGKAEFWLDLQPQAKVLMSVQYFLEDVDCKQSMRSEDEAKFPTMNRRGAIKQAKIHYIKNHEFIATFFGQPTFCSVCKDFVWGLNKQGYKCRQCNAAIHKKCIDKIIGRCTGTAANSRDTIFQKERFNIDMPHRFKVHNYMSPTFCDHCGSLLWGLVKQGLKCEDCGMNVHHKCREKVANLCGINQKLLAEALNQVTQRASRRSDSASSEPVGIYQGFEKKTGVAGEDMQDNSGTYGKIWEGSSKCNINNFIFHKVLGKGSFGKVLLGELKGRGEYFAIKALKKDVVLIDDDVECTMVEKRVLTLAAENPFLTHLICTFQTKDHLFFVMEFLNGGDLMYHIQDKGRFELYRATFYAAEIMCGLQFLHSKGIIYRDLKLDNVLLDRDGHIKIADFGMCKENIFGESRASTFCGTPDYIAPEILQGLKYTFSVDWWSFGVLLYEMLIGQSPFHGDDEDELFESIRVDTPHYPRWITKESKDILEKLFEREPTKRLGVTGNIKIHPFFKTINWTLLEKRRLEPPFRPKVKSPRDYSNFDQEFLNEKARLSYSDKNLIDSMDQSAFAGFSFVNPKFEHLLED
Experiment: Ki Pan Vera (PV) potency for PKC delta
Details: Ki Pan Vera (PV) of PKC delta
Method: [The source words this procedure for another target and reports this target under the same test.] For Ki Pan Vera (PV) of PKCθ, entries identified with “A” had values below 100 nM; entries identified with “B” had values below 1 μM; and entries identified with “C” had values below 10 μM.
outcome.measure: Ki

Clc1ccc(CNc2cc3c(cn2)nc(-c2c(Cl)cccc2Cl)n3CCC2CCNCC2)cc1Cl : > 1000 nM
Fc1ccc(CNc2ncc3nc(-c4c(Cl)cccc4Cl)n(CC4CCNC4)c3n2)cc1Cl (centres unmarked) : > 1000 nM
Clc1cccc(CNc2ncc3nc(-c4c(Cl)cccc4Cl)n(C[C@H]4CCNC4)c3n2)c1 : > 1000 nM
Clc1ccc(CNc2ncc3nc(-c4c(Cl)cccc4Cl)n(C[C@@H]4CCCNC4)c3n2)cc1Cl : > 1000 nM
Fc1ccc(CNc2ncc3nc(-c4c(F)cccc4Cl)n(C[C@H]4CCNC4)c3n2)cc1F : > 1000 nM
Fc1ccc(CNc2ncc3nc(-c4c(Cl)cccc4Cl)n(C[C@@H]4CCCNC4)c3n2)cc1 : > 250 nM
Fc1ccccc1CNc1ncc2nc(-c3cccc(F)c3F)n(CCC3CCNCC3)c2n1 : > 1000 nM
Fc1ccc(CNc2ncc3nc(-c4c(F)cccc4Cl)n(C[C@@H]4CCCNC4)c3n2)c(F)c1 : > 1000 nM

Q) Could you share which Ki value was measured for "Fc1cccc(Cl)c1-c1nc2cnc(NCc3cccc(Cl)c3)nc2n1C[C@H]1CCNC1" ?
A) > 1000 nM

Q) And Fc1ccccc1CNc1ncc2nc(-c3c(F)cccc3Cl)n(CC3CCCNC3)c2n1 (centres unmarked) ?
A) > 1000 nM

Q) Clc1cccc(CNc2ncc3nc(-c4c(Cl)cccc4Cl)n(CC4CCNC4)c3n2)c1 (centres unmarked) , same question.
A) > 1000 nM

Q) Moving on to the next molecule: "Fc1cc(Cl)ccc1CNc1ncc2nc(-c3c(Cl)cccc3Cl)n(C[C@@H]3CCCNC3)c2n1"
A) > 10000 nM

Q) // next record "Fc1ccc(CNc2cc3c(cn2)nc(-c2c(F)cccc2Cl)n3C[C@@H]2CCNC2)cc1Cl"
A) > 1000 nM

Q) "NC[C@H]1CC[C@H](n2c(-c3ccccc3Cl)nc3cnc(NCc4ccccc4F)nc32)CC1" , same question.
A) > 1000 nM

Q) Do the same for "Fc1ccc(F)c(CNc2ncc3nc(-c4c(Cl)cccc4Cl)n(C[C@@H]4CCCNC4)c3n2)c1" please
A) > 250 nM

Q) Record: "Fc1cccc(CNc2ncc3nc(-c4c(F)cccc4Cl)n(C[C@H]4CCNC4)c3n2)c1"
A) > 1000 nM

Each recorded value in this set is attributed to patent US20110046131A1.
